# target.of.assay: T1, human serum albumin (human, UniProt P02768 25-609)
# T1 construct: mature; Bought protein; biotinylated in the Octet and HTRF assays; also called HSA; HuSA
# run.description: binding ELISA, coated albumin, pH 7.4
pEC50: −log10 of the molar value.
property: pEC50

[a] HSA-18 (designed binder, also called HSA-18 monomer) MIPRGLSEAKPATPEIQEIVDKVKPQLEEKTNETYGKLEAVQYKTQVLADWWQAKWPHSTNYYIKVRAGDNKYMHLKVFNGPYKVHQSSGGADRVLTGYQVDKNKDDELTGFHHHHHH
[b] HSA-20 (designed binder) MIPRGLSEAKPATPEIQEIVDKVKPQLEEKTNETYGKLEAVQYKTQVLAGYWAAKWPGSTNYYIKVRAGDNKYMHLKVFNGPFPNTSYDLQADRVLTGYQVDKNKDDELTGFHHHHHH
Inquiry: Lab note: check whether a or b has the lower measured pEC50. Reply with the label of the item you choose.
Reply text: b
